All values here come from ChEMBL document CHEMBL1125131.

# Tested on: Canis familiaris
# protocolNotes: The compound was tested for % decrease in coronary vasodilator activity in anesthetized dogs following intravenous administration; also: test concentration or dose not given here
# Type: functional, Canis lupus familiaris
metric: Decrease (%)
Express it in %; write the number only.

Solved entries (count: 4):
compound | valueUnit | Decrease
CCO/C(O)=C1\C(COCCNCC(N)=O)=NC(C)=C(C(=O)OC)C1c1ccccc1Cl (stereo not given) | % | 88
COC(=O)C1=C(C)NC(C)=C(C(=O)OC)C1c1ccccc1[N+](=O)[O-] | % | 77
CCOC(=O)CNC(=O)NCCOCC1=C(C(=O)OCC)C(c2ccccc2Cl)/C(=C(\O)OC)C(C)=N1 (stereo not given) | % | 61
CCO/C(O)=C1\C(COCCNC(C)C(N)=O)=NC(C)=C(C(=O)OC)C1c1ccccc1Cl (stereo not given) | % | 73

Note: attention shifts to another entry.
Ask | Record request: Decrease value, item CCO/C(O)=C1\C(COCCNC(C)(C)C(N)=O)=NC(C)=C(C(=O)OC)C1c1ccccc1Cl (stereo not given)
Reply | 85
